Reference for the values: patent US20230357429A1

- SUBJECT OF TEST: T1, TCE-33 (anti-CD3 scFv F240A; anti-TROP2 wt)
- T1 construct: scFv on the Fab heavy chain; also called TCE-33 (F240A)
- TEST SUMMARY: competition ELISA, TCE on captured CD3
Where no end group is shown, it is not given here.

{"BINDER": "VYCGPEFDESVGCA (cysteine pairing not given here; also: biotinylated, site not given here, mask peptide for the CD3 scFv) [Peptide-73]", "IC50, nM": 1900}
